assay: LogP HPLC
compounds and their reported chromatographic logP
Answer using only a numeral; do not append any unit.

Here are 8 compounds together with their reported answers.
stdin: Give the reported value of chromatographic logP for this record: CCN(CC)C(=O)Cc1c(-c2ccc(OCCCCF)cc2)nc2ccc(Cl)cn12
stdout: 3.53

stdin: Give the reported value of chromatographic logP for this record: CNC(=O)Cc1c(-c2ccc(OCCF)cc2)nc2ccc(Cl)cn12
stdout: 2.05

stdin: Give the reported value of chromatographic logP for this record: O=C(Cc1c(-c2ccc(OCCF)cc2)nc2ccc(Cl)cn12)N1CCCC1
stdout: 2.45

stdin: Give the reported value of chromatographic logP for this record: CCN(CC)C(=O)Cc1c(-c2ccc(OCCF)cc2)nc2ccc(Cl)cn12
stdout: 2.7

stdin: Give the reported value of chromatographic logP for this record: CCN(C)C(=O)Cc1c(-c2ccc(OCCF)cc2)nc2ccc(Cl)cn12
stdout: 2.34

stdin: Give the reported value of chromatographic logP for this record: CCN(CC)C(=O)Cc1c(-c2ccc(C(C)(C)C)cc2)nc2ccc(F)nn12
stdout: 3.6

stdin: Give the reported value of chromatographic logP for this record: CN(C(=O)Cc1c(-c2ccc(OCCCF)cc2)nc2c(Cl)cc(Cl)cn12)c1ccccc1
stdout: 4.31

stdin: Give the reported value of chromatographic logP for this record: CCN(CC)C(=O)Cc1c(-c2ccc(OCCF)cc2)nc2c(Cl)cc(Cl)cn12
stdout: 2.99

Let us move to another entry and its chromatographic logP.
stdin: Give the reported value of chromatographic logP for this record: CCN(CC)C(=O)Cc1c(-c2ccc(OCCCF)cc2)nn2c(C)cc(C)nc12
stdout: 3.16

====

Target: peripheral benzodiazepine binding site (Rattus norvegicus, UniProt P16257)
Construct: diluted kidney membrane preparation (200 μg); from tissue; host or cells: kidney membrane preparation
Assay: In vitro binding, [3H]-PK11195, kidney membrane preparation
Conditions: PBR IC50 (nM), [3H]-PK11195 (2 nM), 4° C., 1 h
Method: Non-specific binding was determined with PK11195 (10 μM). Non-specific binding was determined with Flumazenil (20 μM). In both cases, incubations were terminated by rapid filtration through Whatman GF/B glass fibre. […] Filters were counted in a β-scintillation counter (Packard) to measure the amount of bound radioactivity. The IC50 of the compounds for the peripheral benzodiazepine binding site and the central benzodiazepine receptor were calculated using Kell 6 software.
compounds and their reported IC50
Expressed in nM, but write only the number.

Here are 6 compounds together with their reported answers.
stdin: For peripheral benzodiazepine binding site (Rattus norvegicus, UniProt P16257), give the measured IC50 of the entry CCN(CC)C(=O)Cc1c(-c2ccc(OCCCF)cc2)nc2ccc(Cl)cn12 [PBR111]
stdout: 7.5

stdin: For peripheral benzodiazepine binding site (Rattus norvegicus, UniProt P16257), give the measured IC50 of the entry CC(C)NC(=O)Cc1c(-c2ccc(OCCF)cc2)nc2ccc(Cl)cn12 [PBR110]
stdout: 14.1

stdin: For peripheral benzodiazepine binding site (Rattus norvegicus, UniProt P16257), give the measured IC50 of the entry CCN(CC)C(=O)Cc1c(-c2ccc(OCCF)cc2)nc2c(Cl)cc(Cl)cn12 [PBR 136]
stdout: 17.6

stdin: For peripheral benzodiazepine binding site (Rattus norvegicus, UniProt P16257), give the measured IC50 of the entry CCN(CC)C(=O)Cc1c(-c2ccc(OCCF)cc2)nc2ccc(Cl)cn12 [PBR102]
stdout: 13.2

stdin: For peripheral benzodiazepine binding site (Rattus norvegicus, UniProt P16257), give the measured IC50 of the entry CCN(CC)C(=O)Cc1c(-c2ccc(OCCCF)cc2)nc2c(Cl)cc(Cl)cn12 [PBR 130]
stdout: 20

stdin: For peripheral benzodiazepine binding site (Rattus norvegicus, UniProt P16257), give the measured IC50 of the entry CCN(CC)C(=O)Cc1c(-c2ccc(C(C)(C)C)cc2)nc2ccc(F)nn12 [Compound 1, reference compound]
stdout: 29

More entries:
stdin: For peripheral benzodiazepine binding site (Rattus norvegicus, UniProt P16257), give the measured IC50 of the entry CCN(C)C(=O)Cc1c(-c2ccc(OCCF)cc2)nc2ccc(Cl)cn12 [PBR107]
stdout: 54.8

stdin: For peripheral benzodiazepine binding site (Rattus norvegicus, UniProt P16257), give the measured IC50 of the entry CN(C(=O)Cc1c(-c2ccc(OCCF)cc2)nc2c(Cl)cc(Cl)cn12)c1ccccc1 [PBR 143]
stdout: 6.4

stdin: For peripheral benzodiazepine binding site (Rattus norvegicus, UniProt P16257), give the measured IC50 of the entry CN(C(=O)Cc1c(-c2ccc(OCCF)cc2)nc2ccc(Cl)cn12)c1ccccc1 [PBR 149]
stdout: 4.7

stdin: For peripheral benzodiazepine binding site (Rattus norvegicus, UniProt P16257), give the measured IC50 of the entry CCN(CC)C(=O)Cc1c(-c2ccc(C(C)(C)C)cc2)nc2ccc(F)nn12 [PBR 132]
stdout: 38

stdin: For peripheral benzodiazepine binding site (Rattus norvegicus, UniProt P16257), give the measured IC50 of the entry O=C(Cc1c(-c2ccc(OCCF)cc2)nc2ccc(Cl)cn12)N1CCCC1 [PBR104]
stdout: 575

stdin: For peripheral benzodiazepine binding site (Rattus norvegicus, UniProt P16257), give the measured IC50 of the entry CNC(=O)Cc1c(-c2ccc(OCCF)cc2)nc2ccc(Cl)cn12 [PBR106]
stdout: 170

====

test: Biodistribution of 18F-labelled tracers in rats; type: in vivo; details: SD rats; 15 min; decay correction not stated
compounds and their reported Biodistribution: Kidney
Expressed in % ID/g, but write only the number.

Here are 4 compounds together with their reported answers.
stdin: Give the reported value of Biodistribution: Kidney for this record: CCN(CC)C(=O)Cc1c(-c2ccc(OCCCF)cc2)nc2ccc(Cl)cn12
stdout: 3.2

stdin: Give the reported value of Biodistribution: Kidney for this record: CCN(CC)C(=O)Cc1c(-c2ccc(OCCCF)cc2)nn2c(C)cc(C)nc12
stdout: 5.5

stdin: Give the reported value of Biodistribution: Kidney for this record: CCN(CC)C(=O)Cc1c(-c2ccc(OCCF)cc2)nc2ccc(Cl)cn12
stdout: 4.5

stdin: Give the reported value of Biodistribution: Kidney for this record: CCN(CC)C(=O)Cc1c(-c2ccc(C(C)(C)C)cc2)nc2ccc([18F])nn12
stdout: 4

Let us move to another entry and its Biodistribution: Kidney.
stdin: Give the reported value of Biodistribution: Kidney for this record: CN(C(=O)Cc1c(-c2ccc(OCCCF)cc2)nc2c(Cl)cc(Cl)cn12)c1ccccc1
stdout: 5

====

compounds and their reported IC50
target: peripheral benzodiazepine binding site (Rattus norvegicus, UniProt P16257); construct: diluted kidney membrane preparation (200 μg); from tissue; host or cells: kidney membrane preparation; assay: In vitro binding, [3H]-PK11195, kidney membrane preparation; details: PBR IC50 (nM), [3H]-PK11195 (2 nM), 4° C., 1 h
Expressed in nM, but write only the number.

stdin: Give the reported value of IC50 for this record: CN(C)C(=O)Cc1c(-c2ccc(OCCF)cc2)nc2ccc(Cl)cn12 [PBR105]
stdout: 675

====

target: peripheral benzodiazepine binding site (Rattus norvegicus, UniProt P16257); construct: diluted kidney membrane preparation (200 μg); from tissue; host or cells: kidney membrane preparation; test: In vitro binding, [3H]-PK11195, kidney membrane preparation; conditions: PBR IC50 (nM), [3H]-PK11195 (2 nM), 4° C., 1 h
compounds and their reported IC50
Expressed in nM, but write only the number.

Here are 2 compounds together with their reported answers.
stdin: Give the reported value of IC50 for this record: CCN(CC)C(=O)Cc1c(-c2ccc(OCCCCF)cc2)nc2ccc(Cl)cn12
stdout: 35

stdin: Give the reported value of IC50 for this record: CN(C(=O)Cc1c(-c2ccc(OCCCF)cc2)nc2c(Cl)cc(Cl)cn12)c1ccccc1
stdout: 7.4

Let us move to another entry and its IC50.
stdin: Give the reported value of IC50 for this record: CCCN(CCC)C(=O)Cc1c(-c2ccc(OCCF)cc2)nc2ccc(Cl)cn12
stdout: 51.3
